Biological target: Voltage-gated potassium channel subunit beta-2 (Rattus norvegicus) (UniProt P62483)
Sequence (P62483 whole entry, looked up): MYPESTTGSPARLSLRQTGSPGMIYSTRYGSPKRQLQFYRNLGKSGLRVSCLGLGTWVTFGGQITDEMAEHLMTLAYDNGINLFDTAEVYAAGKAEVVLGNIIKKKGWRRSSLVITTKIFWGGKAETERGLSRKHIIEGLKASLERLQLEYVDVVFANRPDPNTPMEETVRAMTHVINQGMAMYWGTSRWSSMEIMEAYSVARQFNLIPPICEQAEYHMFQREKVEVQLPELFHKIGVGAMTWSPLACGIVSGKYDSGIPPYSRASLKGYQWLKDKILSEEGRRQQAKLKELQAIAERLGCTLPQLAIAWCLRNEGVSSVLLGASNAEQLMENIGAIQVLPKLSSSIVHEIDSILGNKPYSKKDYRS
Experiment: KvBeta enzyme negative modulators, primary screen, biochemical, NADPH fluorescence (AID 622);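 note: slope of raw intensity against log time taken from 70 to 1610 s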
Conditions: recombinant KvBeta, 4-cyanobenzaldehyde reduction, at 10 µM, stronger effect = higher value
Note to self: values exactly at -0.5 are true. So fluorescence slope at or above -0.5 is true, below is false.

Worked set:
Cc1sc(-n2c(C)cc(/C=N/n3cnnc3)c2C)c(C#N)c1C    false
Cc1ccc(-c2nnn(CC(=O)N(Cc3ccco3)C(C(=O)NC(C)(C)C)c3cccs3)n2)o1 (stereo not drawn)    false

Item CCOC(=O)/C=c1\s/c(=C(\C#N)C(=O)OCC)n(-c2ccccc2)c1=O with fluorescence slope of -0.5 or above?
true

Item C=C(C)Cn1c(-c2ccc(OC)cc2)nc2ccccc21 with fluorescence slope of -0.5 or above?
true

Item CC1Cc2nc(SCC(=O)Nc3nccs3)n(C)c(=O)c2S1 (stereo not drawn) with fluorescence slope of -0.5 or above?
false

Item C=CCN(CC=C)c1nc2ccccc2nc1C(C#N)C(=O)OC(C)C (stereo not drawn) with fluorescence slope of -0.5 or above?
true

Item O=C(CS(=O)CC(=O)Nc1cccc2c1CCCC2)Nc1ccc(F)cc1 (stereo not drawn) with fluorescence slope of -0.5 or above?
false

Item CCOCCn1c(SC)nc2c1c(=O)[nH]c(=O)n2C with fluorescence slope of -0.5 or above?
false

Item N#Cc1c2c(c(-c3ccco3)[nH]c1=O)CCCC2 with fluorescence slope of -0.5 or above?
true

Item CCCCOC(=O)CCc1nc2ccccc2[nH]1 with fluorescence slope of -0.5 or above?
true

Item CCCSc1nnc(NC(=O)Nc2ccccc2)s1 with fluorescence slope of -0.5 or above?
true

Item N#C/C(C(=O)N1CCCCC1)=C1\Nc2ccccc2S1 with fluorescence slope of -0.5 or above?
true

----------
Assay: inhibitors of E-selectin induction by TNFa, primary screen, imaging, HUVEC, immunofluorescence, MLSMR starter and 10KST1 sets (AID 487);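 note: signal is fraction of cell area covered by stained E-selectin grains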
Details: HUVEC TNFalpha-induced E-selectin immunofluorescence imaging, at 2 µM; stronger effect = higher value
measurementKind: inhibition (%)
Give the number; % is assumed, so skip it.

Solved cases (5 shown):
CC(=O)c1ccc(C#CC(C)(C)O)s1    -51.1
COc1cccc(NS(=O)(=O)c2ccc3[nH]cc(C(=O)NC4CC4)c(=O)c3c2)c1    -42.4
CCOC(=O)c1sc(NC(=O)CSc2nnc(-c3ccc(OC)cc3)n2CCOC)nc1C    -89.1
Cc1c(C)n(C(=O)CSc2nccn2C)c2ccccc12    -34.7
COc1cccc(C2/C(=C(\O)c3ccc4c(c3)OCCO4)C(=O)C(=O)N2CCCN(C)C)c1OC (centres undefined)    -21.2

May I ask what inhibition has been recorded for Cc1cccc(OCCCC(=O)O)c1 ?
-57.9

May I ask what inhibition has been recorded for CCCCS(=O)(=O)NC1=NCN(C2CCN(Cc3ccccc3)CC2)CN1 ?
-23.1

May I ask what inhibition has been recorded for O=c1ccc2cc3c([nH]c4ccc(Br)cc43)oc-2c1O ?
-84.7

May I ask what inhibition has been recorded for O=C1CN(C(=O)COC(=O)c2ccccc2NC(=O)c2ccco2)c2ccccc2N1 ?
-31

----------
Experiment: inhibitors of TNFa-induced NFkB p65 translocation, primary screen, imaging, HUVEC, MLSMR starter and 10KST1 sets (AID 438);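 note: compound added about 3h40 before a 20 min TNFalpha stimulation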
Conditions: HUVEC TNFa-induced p65 nuclear translocation; measured here: nuclei count (cytotoxicity indicator), at 2.08 µM
measurementKind: cell count
Lab note: record just the number, no unit beside it.

Solved cases (5 shown):
COC(=O)c1c(N)sc(C(=O)N2CCOCC2)c1C    261
CC1CCN(S(=O)(=O)c2cccc(C(=O)Nc3ccccn3)c2)CC1    338
Cc1ccccc1-n1c(=O)cc(N2CCN(C(=O)c3ccco3)CC2)[nH]c1=O    543
O=c1c2c3c(sc2nc2n1CCCS2)CCCC3    612
COc1ccc(C2C(C#N)=C(N)Oc3cc(C)n(CCN4CCOCC4)c(=O)c32)cc1OC (stereo unspecified)    520

May I ask what cell count has been recorded for C=CCSc1nc(N)c2c(C)c(C)sc2n1 ?
419

May I ask what cell count has been recorded for O=c1oc2c(CN3CCCCC3)c(O)ccc2c2c1CCCCC2 ?
566
